system: miR-17; assay: microRNA polysome shift assay (miPSA) in kidney of wild type mice; assay type: in vivo, mouse; set-up: scale not given here; settings: single dose 0.3 m/kg, seven days later
Recorded miPSA Displacement Score, Mean, one value per entry.

>  <Residue sequence>
ASGSCMAFCFUFUMUSGS [RGLS4326, reference compound]

>  <miPSA Displacement Score, Mean>
1.846

$$$$
>  <Residue sequence>
ASGSCMAFCFUFUMUSCS [RG-NG-1016]

>  <miPSA Displacement Score, Mean>
1.892

$$$$
>  <Residue sequence>
ASGSCMAFCFUFUMUSUS [RG-NG-1017]

>  <miPSA Displacement Score, Mean>
2.077

$$$$
>  <Residue sequence>
ASGSCMAFCFUFUMUSAS [RG-NG-1015]

>  <miPSA Displacement Score, Mean>
2.238

$$$$

====

molecular target: AMPA-R (GluA1/GluA4) (Homo sapiens, UniProt P42261+P48058); construct: host or cells: ChanTest GluA1/GluA4 EZCells; assay: Manual whole-cell patch clamp, ChanTest GluA1/GluA4 EZCells; type: cell-based; settings: 3 uM compound
Sequence (P42261 19-906): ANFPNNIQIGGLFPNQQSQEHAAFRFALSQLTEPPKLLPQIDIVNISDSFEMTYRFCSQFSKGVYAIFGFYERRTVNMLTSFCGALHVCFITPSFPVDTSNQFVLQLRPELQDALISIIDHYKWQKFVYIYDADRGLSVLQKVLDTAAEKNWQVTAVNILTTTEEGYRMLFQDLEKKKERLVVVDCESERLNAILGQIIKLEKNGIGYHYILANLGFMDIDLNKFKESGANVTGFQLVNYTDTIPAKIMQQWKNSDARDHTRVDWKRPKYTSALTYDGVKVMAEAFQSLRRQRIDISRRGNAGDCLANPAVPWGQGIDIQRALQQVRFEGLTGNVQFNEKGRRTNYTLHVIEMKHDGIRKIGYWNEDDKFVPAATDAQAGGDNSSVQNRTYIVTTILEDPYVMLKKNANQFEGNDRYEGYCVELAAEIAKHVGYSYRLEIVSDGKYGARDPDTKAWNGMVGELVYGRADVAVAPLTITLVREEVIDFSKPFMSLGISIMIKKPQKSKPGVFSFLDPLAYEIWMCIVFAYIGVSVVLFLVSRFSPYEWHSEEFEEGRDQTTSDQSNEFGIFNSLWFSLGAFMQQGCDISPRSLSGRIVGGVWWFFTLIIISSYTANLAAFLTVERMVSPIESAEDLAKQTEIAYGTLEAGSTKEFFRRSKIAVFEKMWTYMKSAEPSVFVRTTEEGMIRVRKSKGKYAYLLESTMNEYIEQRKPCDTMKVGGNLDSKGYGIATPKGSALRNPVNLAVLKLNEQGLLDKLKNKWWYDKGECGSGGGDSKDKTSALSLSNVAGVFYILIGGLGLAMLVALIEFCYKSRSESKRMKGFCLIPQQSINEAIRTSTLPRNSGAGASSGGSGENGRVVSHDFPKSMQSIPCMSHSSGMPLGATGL
Sequence (P48058 21-902): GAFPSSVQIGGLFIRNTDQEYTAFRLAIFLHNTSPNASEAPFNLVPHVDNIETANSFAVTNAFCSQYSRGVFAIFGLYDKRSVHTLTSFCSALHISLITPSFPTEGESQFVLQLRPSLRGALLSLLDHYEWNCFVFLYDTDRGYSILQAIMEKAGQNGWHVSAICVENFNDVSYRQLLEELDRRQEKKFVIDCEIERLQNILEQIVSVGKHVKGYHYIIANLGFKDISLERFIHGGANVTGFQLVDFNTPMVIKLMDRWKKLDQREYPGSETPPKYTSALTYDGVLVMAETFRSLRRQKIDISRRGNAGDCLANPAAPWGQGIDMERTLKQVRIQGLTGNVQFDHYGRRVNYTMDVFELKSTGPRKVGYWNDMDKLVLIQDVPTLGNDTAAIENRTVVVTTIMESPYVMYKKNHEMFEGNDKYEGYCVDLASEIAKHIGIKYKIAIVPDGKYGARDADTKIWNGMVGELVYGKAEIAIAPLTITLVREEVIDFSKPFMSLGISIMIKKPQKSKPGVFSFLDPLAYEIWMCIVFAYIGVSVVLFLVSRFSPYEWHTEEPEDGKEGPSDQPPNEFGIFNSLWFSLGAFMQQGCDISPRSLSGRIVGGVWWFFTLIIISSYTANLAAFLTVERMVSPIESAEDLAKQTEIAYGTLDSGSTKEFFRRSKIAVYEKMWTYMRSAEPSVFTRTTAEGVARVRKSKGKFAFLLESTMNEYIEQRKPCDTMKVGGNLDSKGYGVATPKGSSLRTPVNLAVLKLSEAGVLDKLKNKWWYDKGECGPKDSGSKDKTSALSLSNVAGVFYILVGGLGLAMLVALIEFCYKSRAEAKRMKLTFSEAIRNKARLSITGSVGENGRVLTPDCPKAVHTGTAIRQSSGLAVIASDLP
hey, just use T if measured % Inhibition on membrane currents evoked with 10 uM (s)-AMPA (Mean ± SD) is less than 40%, otherwise F

>  <Residue sequence>
ASGSCSASCSUSUSUSGS [RG-NG-1001]

>  <Study system>
AMPA-R (GluA1/GluA4) (Homo sapiens, UniProt P42261+P48058)

>  <Class>
F

$$$$
>  <Residue sequence>
ASCSAMAFUFGFCMASCS [RG5124, reference compound]

>  <Study system>
AMPA-R (GluA1/GluA4) (Homo sapiens, UniProt P42261+P48058)

>  <Class>
F

$$$$
>  <Residue sequence>
ASGSCMAFCFUFUMUSGS [RGLS4326, reference compound]

>  <Study system>
AMPA-R (GluA1/GluA4) (Homo sapiens, UniProt P42261+P48058)

>  <Class>
F

$$$$
>  <Residue sequence>
ASGSCMAFCFUFUMUSCS [RG-NG-1016]

>  <Study system>
AMPA-R (GluA1/GluA4) (Homo sapiens, UniProt P42261+P48058)

>  <Class>
T

$$$$
>  <Residue sequence>
ASGSCMAFCFUFUMUSUS [RG-NG-1017]

>  <Study system>
AMPA-R (GluA1/GluA4) (Homo sapiens, UniProt P42261+P48058)

>  <Class>
T

$$$$

====

Each entry below lists one item and its recorded % Inhibition @ 0.1 uM value.
system: AMPA-R; assay: [3H]AMPA radioligand binding assay on rat brain synaptic membranes; conditions: Experiment #3, 0.1 uM

>  <Residue sequence>
ASGSCMAFCFUFUMUSGE [RG-NG-1025]

>  <Study system>
AMPA-R

>  <% Inhibition @ 0.1 uM (%)>
−3.8

$$$$
>  <Residue sequence>
ASGSCMAFCFUFUMTEGE [RG-NG-1024]

>  <Study system>
AMPA-R

>  <% Inhibition @ 0.1 uM (%)>
−17

$$$$
>  <Residue sequence>
ASCSAMAFUFGFCMASCS [RG5124, reference compound]

>  <Study system>
AMPA-R

>  <% Inhibition @ 0.1 uM (%)>
5.1

$$$$

====

tested on: AMPA-R; test: [3H]AMPA radioligand binding assay on rat brain synaptic membranes; conditions: Experiment #2, 1 uM

>  <Residue sequence>
ASGSCMAFCFUFUMUSCS [RG-NG-1016]

>  <% Inhibition @ 1 uM>
10.4%

$$$$
>  <Residue sequence>
AEGECMAFCFUFUMTEGE [RG-NG-1009]

>  <% Inhibition @ 1 uM>
2.7%

$$$$
>  <Residue sequence>
ASGSCMAFCFUFUMUSUS [RG-NG-1017]

>  <% Inhibition @ 1 uM>
−1.3%

$$$$
>  <Residue sequence>
ASGLCMAFCFUFUMTLGS [RG-NG-1012]

>  <% Inhibition @ 1 uM>
38.5%

$$$$
>  <Residue sequence>
AMGLCLALCLUMTLUCM [RG-NG-1029]

>  <% Inhibition @ 1 uM>
15.9%

$$$$
>  <Residue sequence>
AEGECMAFCFUFUMUSGS [RG-NG-1010]

>  <% Inhibition @ 1 uM>
31.3%

$$$$
>  <Residue sequence>
ASGSCSASCSUSUSUS [RG-NG-1002]

>  <% Inhibition @ 1 uM>
4.6%

$$$$
>  <Residue sequence>
ASGSCSAFCFUFUMUSCS [RG-NG-1027]

>  <% Inhibition @ 1 uM>
2.3%

$$$$
>  <Residue sequence>
ASGECMAFCFUFUMTEGS [RG-NG-1008]

>  <% Inhibition @ 1 uM>
13.6%

$$$$
>  <Residue sequence>
ASGSCMAFCFUFUMUS [RG-NG-1014]

>  <% Inhibition @ 1 uM>
−5.5%

$$$$
>  <Residue sequence>
ASGSCFAFCFUFUFUSGS [RG-NG-1007]

>  <% Inhibition @ 1 uM>
39.7%

$$$$
>  <Residue sequence>
ALGLCMAFCFUFUMUSGS [RG-NG-1011]

>  <% Inhibition @ 1 uM>
30.6%

$$$$
>  <Residue sequence>
ASASGSCMAFCFUFUMUS [RG-NG-1013]

>  <% Inhibition @ 1 uM>
−5.6%

$$$$
>  <Residue sequence>
AMAMGLCLALCLUMTLUM [RG-NG-1031]

>  <% Inhibition @ 1 uM>
1%

$$$$
>  <Residue sequence>
ASGSCMAFCFUFUMUSGS [RGLS4326, reference compound]

>  <% Inhibition @ 1 uM>
73.1%

$$$$
>  <Residue sequence>
ASGSCSASCSUSUSUSGS [RG-NG-1001]

>  <% Inhibition @ 1 uM>
68.3%

$$$$
>  <Residue sequence>
ASCSAMAFUFGFCMASCS [RG5124, reference compound]

>  <% Inhibition @ 1 uM>
1.6%

$$$$

====

tested on: AMPA-R; assay: [3H]AMPA radioligand binding assay on rat brain synaptic membranes; settings: Experiment #1
pIC50: −log10 of the molar value.
Listing of recorded pIC50 by entry.

>  <Residue sequence>
USASAMGCSASCSUMUMUSGS (antisense UAAGCACUUUG; cEt at 1, 2, 5, 6, 7, 10, 11, 2'-O-methyl at 3, 8, 9, other sugars and backbone not given here) [RG-NG-1005]

>  <Study system>
AMPA-R

>  <pIC50>
< 4.00

$$$$
>  <Residue sequence>
ASGSCSASCSUSUSUS [RG-NG-1002]

>  <Study system>
AMPA-R

>  <pIC50>
< 4.00

$$$$
>  <Residue sequence>
ASCSAMAFUFGFCMASCS [RG5124, reference compound]

>  <Study system>
AMPA-R

>  <pIC50>
< 4.00

$$$$

====

test system: AMPA-R; assay: [3H]AMPA radioligand binding assay on rat brain synaptic membranes; settings: Experiment #2, 100 uM

>  <Residue sequence>
ASGSCFAFCFUFUFUSGS [RG-NG-1007]

>  <% Inhibition @ 100 uM, %>
94.3

$$$$
>  <Residue sequence>
ASASGSCMAFCFUFUMUS [RG-NG-1013]

>  <% Inhibition @ 100 uM, %>
37.2

$$$$
>  <Residue sequence>
ASGSCSALCFUFUMUSCS [RG-NG-1028]

>  <% Inhibition @ 100 uM, %>
2.7

$$$$
>  <Residue sequence>
ASGSCSAFCFUFUMUSCS [RG-NG-1027]

>  <% Inhibition @ 100 uM, %>
3

$$$$
>  <Residue sequence>
ASGSCMAFCFUFUMUSAS [RG-NG-1015]

>  <% Inhibition @ 100 uM, %>
19.9

$$$$

====

system: AMPA-R; assay: [3H]AMPA radioligand binding assay on rat brain synaptic membranes; settings: Experiment #2, 0.1 uM;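 note: competition binding in which test compounds at rising concentrations displace [3H]AMPA from AMPA-R on rat brain synaptic membranes, with reduced bound radioligand as read-out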
The reader will find reported % Inhibition @ 0.1 uM values listed item by item below.
Experimental readout: % Inhibition @ 0.1 uM (%)

>  <Residue sequence>
ASGECMAFCFUFUMTEGS [RG-NG-1008]

>  <Experimental readout>
% Inhibition @ 0.1 uM

>  <Units label>
%

>  <Experimental result>
−22.4

$$$$
>  <Residue sequence>
ASGSCSASCSUSUSUSGS [RG-NG-1001]

>  <Experimental readout>
% Inhibition @ 0.1 uM

>  <Units label>
%

>  <Experimental result>
42.2

$$$$
>  <Residue sequence>
AMAMGLCLALCLUMTLUM [RG-NG-1031]

>  <Experimental readout>
% Inhibition @ 0.1 uM

>  <Units label>
%

>  <Experimental result>
−4.3

$$$$
>  <Residue sequence>
ASGSCMALCFUFUMUSCS [RG-NG-1026]

>  <Experimental readout>
% Inhibition @ 0.1 uM

>  <Units label>
%

>  <Experimental result>
−3.3

$$$$
>  <Residue sequence>
ASGSCFAFCFUFUFUSGS [RG-NG-1007]

>  <Experimental readout>
% Inhibition @ 0.1 uM

>  <Units label>
%

>  <Experimental result>
3.1

$$$$
>  <Residue sequence>
ASGLCMAFCFUFUMTLGS [RG-NG-1012]

>  <Experimental readout>
% Inhibition @ 0.1 uM

>  <Units label>
%

>  <Experimental result>
9.9

$$$$
>  <Residue sequence>
ASGSCSASCSUSUSUS [RG-NG-1002]

>  <Experimental readout>
% Inhibition @ 0.1 uM

>  <Units label>
%

>  <Experimental result>
−5.5

$$$$
